Below: a set of entries, each annotated with reported Ki.
# EXPERIMENTAL_SYSTEM: CB1 (UniProt P21554)
# PROCEDURE_DETAILS: CB1 radioligand binding assay
# Design: species or system human
# REPORTED_CONDITIONS: read-out: Ki (CB1)
RECORDED_METRIC: Ki (nM)

compound="CCS/C(N)=N\\C(=N/S(=O)(=O)c1ccc(C(F)(F)F)cc1)N1CCC(c2ccccc2)C(c2ccc(Cl)cc2)=N1 (stereo not shown) [Compound 11i]" recorded_metric=Ki assay_result=99.7
compound="C/C(N)=N/C(=N/S(=O)(=O)c1ccc(C(F)(F)F)cc1)N1CCC(c2ccccc2)C(c2ccc(F)cc2)=N1 (stereo not shown) [Compound 10zc]" recorded_metric=Ki assay_result=120
compound="N/C(=N/C(=N/S(=O)(=O)c1ccc(C(F)(F)F)cc1)N1CCC(c2ccccc2)C(c2ccc(Cl)cc2)=N1)c1ccccc1Cl (stereo not shown) [Compound 10s]" recorded_metric=Ki assay_result=20.5
compound="C/C(N)=N\\C(=N\\S(=O)(=O)c1ccccc1C(F)(F)F)N1CCC(c2ccccc2)C(c2ccc(Cl)cc2)=N1 (stereo not shown) [Compound 10k]" recorded_metric=Ki assay_result=50.6
compound="CC(C)(C)OC(=O)N/C(N)=N\\C(=N\\S(=O)(=O)c1ccc(C(F)(F)F)cc1)N1CCC(c2ccccc2)C(c2ccc(Cl)cc2)=N1 (stereo not shown) [Compound 19]" recorded_metric=Ki assay_result=383
compound="C/C(N)=N\\C(=N\\S(=O)(=O)c1ccc(F)cc1)N1CCC(c2ccccc2)C(c2ccc(Cl)cc2)=N1 (stereo not shown) [Compound 10j]" recorded_metric=Ki assay_result=59.3
compound="N/C(=N\\C(=N\\S(=O)(=O)c1ccc(C(F)(F)F)cc1)N1CCC(c2ccccc2)C(c2ccc(F)cc2)=N1)c1ccc(F)cc1F (stereo not shown) [Compound 10ze]" recorded_metric=Ki assay_result=58.6
compound="CC(C)(C)/C(N)=N/C(=N/S(=O)(=O)c1ccc(C(F)(F)F)cc1)N1CCC(c2ccccc2)C(c2ccc(Cl)cc2)=N1 (stereo not shown) [Compound 10o]" recorded_metric=Ki assay_result=10
compound="C[Se]/C(N)=N\\C(=N\\S(=O)(=O)c1ccc(C(F)(F)F)cc1)N1CCC(c2ccccc2)C(c2ccc(Cl)cc2)=N1 (stereo not shown) [Compound 12b]" recorded_metric=Ki assay_result=114
compound="C/C(N)=N\\C(=N\\S(=O)(=O)c1ccc(C#N)cc1)N1CCC(c2ccccc2)C(c2ccc(Cl)cc2)=N1 (stereo not shown) [Compound 10e]" recorded_metric=Ki assay_result=77
compound="CC(N/C(=N/S(=O)(=O)c1ccc(C(F)(F)F)cc1)N1CCC(c2ccccc2)C(c2ccc(Cl)cc2)=N1)C(N)=O (single isomer, unassigned) [Compound 31a]" recorded_metric=Ki assay_result=96.9
compound="C/C(N)=N\\C(=N\\S(=O)(=O)c1ccc(OC(F)(F)F)cc1)N1CCC(c2ccccc2)C(c2ccc(Cl)cc2)=N1 (stereo not shown) [Compound 10d]" recorded_metric=Ki assay_result=56.5
compound="N/C(=N\\C(=N\\S(=O)(=O)c1ccc(C(F)(F)F)cc1)N1CCC(c2ccccc2)C(c2ccc(Cl)cc2)=N1)c1ccccc1 (stereo not shown) [Compound 10r]" recorded_metric=Ki assay_result=33

* * *

# EXPERIMENTAL_SYSTEM: UniProtKB P29477
# PROCEDURE_DETAILS: Inducible NOS biochemical assay
Measured iNOS inhibition % Response accompanies every entry in the list below.
RECORDED_METRIC: iNOS inhibition % Response (%)

compound="C[Se]/C(N)=N\\C(=N\\S(=O)(=O)c1ccc(C(F)(F)F)cc1)N1CCC(c2ccccc2)C(c2ccc(Cl)cc2)=N1 (stereo not shown) [Compound 12b]" experimental_system="UniProtKB P29477" recorded_metric="iNOS inhibition % Response" unit_label=% assay_result=64
compound="C/C(N)=N\\C(=N\\S(=O)(=O)c1ccc(Cl)cc1)N1CCC(c2ccccc2)C(c2ccc(Cl)cc2)=N1 (stereo not shown) [Compound 10a]" experimental_system="UniProtKB P29477" recorded_metric="iNOS inhibition % Response" unit_label=% assay_result=39
compound="CS/C(N)=N\\C(=N\\S(=O)(=O)c1ccc(C(F)(F)F)cc1)N1CCC(c2ccccc2)C(c2ccc(Cl)cc2)=N1 (stereo not shown) [Compound 11b]" experimental_system="UniProtKB P29477" recorded_metric="iNOS inhibition % Response" unit_label=% assay_result=56
compound="C/C(N)=N\\C(=N\\S(=O)(=O)c1ccc(OC(F)(F)F)cc1)N1CCC(c2ccccc2)C(c2ccc(Cl)cc2)=N1 (stereo not shown) [Compound 10d]" experimental_system="UniProtKB P29477" recorded_metric="iNOS inhibition % Response" unit_label=% assay_result=55
compound="CCS/C(N)=N\\C(=N/S(=O)(=O)c1ccc(C(F)(F)F)cc1)N1CCC(c2ccccc2)C(c2ccc(Cl)cc2)=N1 (stereo not shown) [Compound 11i]" experimental_system="UniProtKB P29477" recorded_metric="iNOS inhibition % Response" unit_label=% assay_result=66
compound="C/C(N)=N\\C(=N\\S(=O)(=O)c1ccc(C#N)cc1)N1CCC(c2ccccc2)C(c2ccc(Cl)cc2)=N1 (stereo not shown) [Compound 10e]" experimental_system="UniProtKB P29477" recorded_metric="iNOS inhibition % Response" unit_label=% assay_result=43
compound="CC(C)(C)/C(N)=N/C(=N/S(=O)(=O)c1ccc(C(F)(F)F)cc1)N1CCC(c2ccccc2)C(c2ccc(Cl)cc2)=N1 (stereo not shown) [Compound 10o]" experimental_system="UniProtKB P29477" recorded_metric="iNOS inhibition % Response" unit_label=% assay_result=66

The measurements presented in this section are drawn from patent US20250197359A1.
